Give solubility kinetic at 24 h for every item shown.
assay: Kinetic solubility; type: physicochemical; conditions: aqueous buffer, kinetic from dmso stock, pH 7.4 buffer, room temperature, 1.0% DMSO, read-out: I: kinetic solubility class

Qu. Quick check: solubility kinetic at 24 h of Cc1ncc(-c2ccc(C(=O)N3CCC(O)CC3)cc2Cl)cc1-c1ccnc(C(C)(C)C)c1 ?
Ans. 10 to 60 µg/mL

Qu. Quick check: solubility kinetic at 24 h of CC(C)(C)c1cc(-c2cc(C#N)cc(-c3ccc(C(=O)N4CCC(O)CC4)cc3Cl)c2)ccn1 ?
Ans. < 10 µg/mL

Qu. Quick check: solubility kinetic at 24 h of CC(C)(C)c1cc(-c2cncc(-c3ccc(C(=O)N4CCC(F)C(O)C4)cc3Cl)c2)ccn1 (stereo not drawn) ?
Ans. 10 to 60 µg/mL

Qu. Quick check: solubility kinetic at 24 h of CC(C)(C)c1cc(-c2cncc(-c3ccc(C(=O)N4CCC(=O)C(F)C4)cc3Cl)c2)ccn1 (stereo not drawn) ?
Ans. 10 to 60 µg/mL

Qu. Quick check: solubility kinetic at 24 h of O=C(c1ccc(-c2cncc(-c3ccnc(C4CC4)c3)c2)c(Cl)c1)N1CCC(F)C(O)C1 (stereo not drawn) ?
Ans. < 10 µg/mL

Qu. Quick check: solubility kinetic at 24 h of O=C(c1ccc(-c2cncc(-c3ccnc(C4CC4)c3)c2)c(Cl)c1)N1CCC[C@H]1CO ?
Ans. 10 to 60 µg/mL

Qu. Quick check: solubility kinetic at 24 h of CC(C)(C)c1cc(-c2cncc(-c3ccc(C(=O)N4CC[C@@H](O)C4)cc3Cl)c2)ccn1 ?
Ans. 10 to 60 µg/mL

Qu. Quick check: solubility kinetic at 24 h of CC(C)(C)c1cc(-c2cncc(-c3ccc(C(=O)N4CCC(O)C(F)C4)cc3Cl)c2)ccn1 (stereo not drawn) ?
Ans. 10 to 60 µg/mL

Qu. Quick check: solubility kinetic at 24 h of CC1(c2cc(-c3cncc(-c4ccc(C(=O)N5CCC(O)CC5)cc4Cl)c3)ccn2)OCCO1 ?
Ans. 10 to 60 µg/mL

Qu. Quick check: solubility kinetic at 24 h of CC(C)(C)c1cc(-c2cc(-c3ccc(C(=O)N4CCC(O)CC4)cc3Cl)cc3cnccc23)ccn1 ?
Ans. 10 to 60 µg/mL

Qu. Quick check: solubility kinetic at 24 h of CC(C)(C)c1cc(-c2cccc(-c3ccc(NS(C)(=O)=O)cc3Cl)c2)ccn1 ?
Ans. < 10 µg/mL

Qu. Quick check: solubility kinetic at 24 h of CC(C)OC(=O)Nc1ccc(-c2cncc(-c3ccnc(C4CC4)c3)c2)c(Cl)c1 ?
Ans. < 10 µg/mL

Qu. Quick check: solubility kinetic at 24 h of COC1CCCN(C(=O)c2ccc(-c3cncc(-c4ccnc(C(C)(C)C)c4)c3)c(Cl)c2)C1 (stereo not drawn) [drawing 375] ?
Ans. 10 to 60 µg/mL

Qu. Quick check: solubility kinetic at 24 h of CC(C)(C)c1cc(-c2cccc(-c3ccc(NS(=O)(=O)C(F)(F)F)cc3Cl)c2F)ccn1 ?
Ans. 10 to 60 µg/mL

Qu. Quick check: solubility kinetic at 24 h of CC(C)(O)c1cc(-c2cncc(-c3ccc(NS(C)(=O)=O)cc3Cl)c2)ccn1 ?
Ans. < 10 µg/mL

Qu. Quick check: solubility kinetic at 24 h of CC(C)OC(=O)Nc1ccc(-c2cncc(-c3ccnc(C4OCCO4)c3)c2)c(Cl)c1 [drawing 371] ?
Ans. < 10 µg/mL

Qu. Quick check: solubility kinetic at 24 h of CC(C)(C)c1cc(-c2cncc(-c3ccc(C(=O)N(CCCO)CCCO)cc3Cl)c2)ccn1 ?
Ans. 10 to 60 µg/mL

Qu. Quick check: solubility kinetic at 24 h of CC(C)(C)c1cc(-c2cncc(-c3ccc(C(=O)N4CCC4C(C)(C)O)cc3Cl)c2)ccn1 (stereo not drawn) ?
Ans. 10 to 60 µg/mL
